Tested on: Aspergillus fumigatus
Procedure Summary: microbe, parasite or virus in culture
Format: functional
Assay Setup: Aspergillus fumigatus, 231, 24 h
Description: Antifungal activity against Aspergillus fumigatus 231 after 24 hrs by modified standard CSLI M27-A2 method
Assay Endpoint: MIC (µM)
Numeric only. Scale: µM

# example entries with known answers
CCCCCCCCCCCC[n+]1cccc2cc(O)ccc21.[Br-] : 1.95
CCCCCCCCCCCCCCCC[n+]1cccc2cc(O)ccc21.[Br-] : 15.6

Consider the additional compound presented here.
INPUT: Field request: MIC | item: CCCCCCCCCCCC[n+]1ccccc1
OUTPUT: 3.91

----------
System: Staphylococcus aureus
Procedure Summary: Bactericidal activity against Staphylococcus aureus CCM 4516/08 after 48 hrs by microdilution broth method
Type: functional
Assay Setup: CCM 4516/08, 48 h, read-out: MBC>99.9
Readings of MBC for the listed compounds

# example entries with known answers
CCCCCCCCCCCC[n+]1ccccc1 : 1.95 µM
CCCCCCCCCCCCCC[n+]1cccc2cc(O)ccc21.[Br-] : 7.81 µM

Consider the additional compound presented here.
INPUT: Field request: MBC | item: CCCCCCCCCCCC[N+](C)(C)Cc1ccccc1
OUTPUT: 1.95 µM

----------
Tested on: Pichia kudriavzevii
Procedure Summary: Antifungal activity against Candida krusei E28 after 48 hrs by modified standard CSLI M27-A2 method
Assay type: functional
Assay Setup: E28, 48 h
Readings of MIC for the listed compounds
Numeric only. Scale: µM

CCCCCCCCCCCCCCCC[n+]1cccc2cc(O)ccc21.[Br-] : 3.91
CCCCCCCCCCCC[n+]1ccccc1 : 0.49
CCCCCCCCCCCC[n+]1cccc2cc(O)ccc21.[Br-] : 0.98
CCCCCCCCCCCCCC[N+](C)(C)Cc1ccccc1 : 3.91
CCCCCCCCCCCCCC[n+]1cccc2cc(O)ccc21.[Br-] : 7.81
CCCCCCCCCCCCCCCC[N+](C)(C)Cc1ccccc1 : 1.95
CCCCCCCCCCCCCC[n+]1ccccc1 : 0.98

Consider the additional compound presented here.
INPUT: Field request: MIC | item: CCCCCCCCCCCC[N+](C)(C)Cc1ccccc1
OUTPUT: 0.49

----------
Test system: Aspergillus fumigatus
Procedure Summary: Fungicidal activity against Aspergillus fumigatus 231 after 48 hrs by modified standard CSLI M27-A2 method
Type: functional
Assay Setup: Aspergillus fumigatus, 231, 48 h
Rule: MFC below 100 µM gives 1.0. Equal to or above 100 µM gives 0.0.

INPUT: Is MFC of CCCCCCCCCCCCCCCC[n+]1ccccc1 [CETYLPYRIDINIUM BROMIDE] strictly below 100 µM?
OUTPUT: 1.0

INPUT: Another compound: CCCCCCCCCCCC[N+](C)(C)Cc1ccccc1
OUTPUT: 1.0

INPUT: Another compound: CCCCCCCCCCCC[n+]1cccc2cc(O)ccc21.[Br-]
OUTPUT: 1.0

INPUT: Another compound: CCCCCCCCCCCC[n+]1ccccc1
OUTPUT: 1.0

INPUT: Another compound: CCCCCCCCCCCCCC[n+]1cccc2cc(O)ccc21.[Br-]
OUTPUT: 0.0

INPUT: Another compound: CCCCCCCCCCCCCCCC[n+]1cccc2cc(O)ccc21.[Br-]
OUTPUT: 0.0

INPUT: Another compound: CCCCCCCCCCCCCCCC[N+](C)(C)Cc1ccccc1
OUTPUT: 1.0

INPUT: Another compound: CCCCCCCCCCCCCC[n+]1ccccc1
OUTPUT: 0.0

INPUT: Another compound: CCCCCCCCCCCCCC[N+](C)(C)Cc1ccccc1
OUTPUT: 0.0
